The values you see were collected from ChEMBL document CHEMBL3638533.

- target: Histone deacetylase 1 (Homo sapiens)
- Sequence (Q13547 whole entry): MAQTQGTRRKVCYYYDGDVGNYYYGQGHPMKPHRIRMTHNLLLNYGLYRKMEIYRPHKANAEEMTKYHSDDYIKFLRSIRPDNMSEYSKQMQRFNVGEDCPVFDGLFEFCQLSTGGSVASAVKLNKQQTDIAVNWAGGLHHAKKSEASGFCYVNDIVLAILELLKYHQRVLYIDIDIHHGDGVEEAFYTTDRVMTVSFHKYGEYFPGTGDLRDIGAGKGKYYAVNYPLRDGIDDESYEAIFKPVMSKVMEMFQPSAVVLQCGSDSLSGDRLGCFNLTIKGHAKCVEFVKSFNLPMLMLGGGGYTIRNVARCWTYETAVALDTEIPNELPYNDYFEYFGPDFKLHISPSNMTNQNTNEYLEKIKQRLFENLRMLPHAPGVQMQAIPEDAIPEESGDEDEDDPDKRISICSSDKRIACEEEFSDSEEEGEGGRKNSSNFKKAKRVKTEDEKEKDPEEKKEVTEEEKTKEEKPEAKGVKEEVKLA
- runDescription: Flag Assay: Novel compounds were tested for their ability to inhibit histone deacetylase, subtype 1 (HDAC1) using an in vitro deacetylation assay. The enzyme source for this assay was an epitope-tagged human HDAC1 complex immuno-purified from stably expressing mammalian cells. The substrate consisted of a commercial product containing an acetylated lysine side chain (BIOMOL Research Laboratories, Inc., Plymouth Meeting, Pa.). Upon deacetylation of the substrate by incubation with the purified HDAC1 complex, a fluorophore is produced that is directly proportional to the level of deacetylation.
valueType: IC50 (nM)
Please reply with the bare figure in nM and do not write the unit itself.

The reported Histone deacetylase 1 (Homo sapiens) IC50 of O=C(Nc1cc(-c2ccccc2)ccc1O)c1ccc(CNCCc2c[nH]cn2)cc1 is 2500
